# System: RPMI-8226 leukemia
# run description: NCI tumour cell line growth inhibition, 48 h; in the data active = GI50 below about 0.43 µM; inactive = the rest
Outcomes: true for active, false for inactive

compound | category label
COc1ccc(NC(=O)C2CCC(CNS(=O)(=O)c3ccccc3)CC2)cc1OC (configuration not stated) | false
CCC1(O)C(=O)OCc2c1cc1n(c2=O)Cc2cc3c(NC(=O)CN)cccc3nc2-1 (configuration not stated) | false
Oc1cccc2ccc(N/N=C/c3cc(CN4CCOCC4)c(O)c4ncccc34)nc12 | true
C[C@]12CC[C@@H]3c4cc(OC(F)F)c(OS(N)(=O)=O)cc4CC[C@H]3[C@@H]1CC[C@@H]2O | false
CC1OC(OC2C(O)CC(OC3C(O)CC(OC4CCC5(C)C(CCC6C5CC(O)C5(C)C(C7=CC(=O)OC7)CCC65O)C4)OC3C)OC2C)CC(O)C1O (configuration not stated) | true
O=[N+]([O-])c1ccc(N2CCOCC2)c2c1no[n+]2[O-] | false
N#CC1=C(/N=C/c2ccccc2)Oc2c(ccc3ccccc23)C1c1ccccc1 (configuration not stated) | false
CC(C)(O)CNc1nc(Nc2ccnc(C(F)(F)F)c2)nc(-c2cccc(C(F)(F)F)n2)n1 | false
COC(=O)c1cncc(/C=C/c2c(C)cc(O)cc2C)c1 | false
Cc1cccc2c3c(sc12)C(c1ccc(Cl)cc1)C(C#N)=C(N)O3 (configuration not stated) | true
CCCCCO/N=C\c1c2c(O)c3c(O)c(C)c4c(c3c1O)C(=O)C(C)(O/C=C\C(OC)C(C)C(OC(C)=O)C(C)C(O)C(C)C(O)C(C)/C=C\C=C(\C)C(=O)N2)O4 (configuration not stated) | false
Cc1cc(C#Cc2ccc(C(C)(C)C)cc2)ccc1-n1c(/C=C/c2ccc(O)cc2O)nc2ccccc2c1=O | false
